system: Staphylococcus aureus; test: Minimum inhibitory concentration against Staphylococcus aureus; assay type: functional
Endpoint label: MIC (µg/mL)
I only need the number, in µg/mL, no unit after it.

INSERT INTO results (smiles_entry, endpoint_label, measured) VALUES
  ('CC[C@H]1OC(=O)[C@H](C)[C@H]2OC3(CCN(C(=O)c4c[nH]c5ccccc45)CC3)O[C@](C)(C[C@@H](C)CN[C@H](C)[C@@H](O)[C@]1(C)O)[C@H](O[C@@H]1O[C@H](C)C[C@H](N(C)C)[C@H]1O)[C@H]2C', 'MIC', 0.39);

Moving on to the next molecule.
Data request, read-out MIC, for CC[C@H]1OC(=O)[C@H](C)[C@H]2OC3(CCN(CCc4cccc(OC)c4)CC3)O[C@](C)(C[C@@H](C)CN[C@H](C)[C@@H](O)[C@]1(C)O)[C@H](O[C@@H]1O[C@H](C)C[C@H](N(C)C)[C@H]1O)[C@H]2C 0.39

* * *

test system: Escherichia coli; assay: Minimum inhibitory concentration against Escherichia coli; format: functional
Endpoint label: MIC (µg/mL)
I only need the number, in µg/mL, no unit after it.

INSERT INTO measurements (smiles_entry, endpoint_label, measured) VALUES
  ('CC[C@H]1OC(=O)[C@H](C)[C@H]2OC3(CCN(CCc4ccc(Cl)cc4)CC3)O[C@](C)(C[C@@H](C)CN[C@H](C)[C@@H](O)[C@]1(C)O)[C@H](O[C@@H]1O[C@H](C)C[C@H](N(C)C)[C@H]1O)[C@H]2C', 'MIC', 0.2);

Data request, read-out MIC, for CC[C@H]1OC(=O)[C@H](C)[C@H]2OC3(CCN(Cc4cccnc4)CC3)O[C@](C)(C[C@@H](C)CN(C)[C@H](C)[C@@H](O)[C@]1(C)O)[C@H](O[C@@H]1O[C@H](C)C[C@H](N(C)C)[C@H]1O)[C@H]2C 0.39

* * *

MIC for assorted compounds
tested on: Pasteurella multocida; assay: Minimum inhibitory concentration against Pasteurella multocida; type: functional
I only need the number, in µg/mL, no unit after it.

INSERT INTO assay_data (smiles_entry, result_units, measured) VALUES
  ('CC[C@H]1OC(=O)[C@H](C)[C@H]2OC3(CCN(C(=O)c4cccnc4)CC3)O[C@](C)(C[C@@H](C)CN(C)[C@H](C)[C@@H](O)[C@]1(C)O)[C@H](O[C@@H]1O[C@H](C)C[C@H](N(C)C)[C@H]1O)[C@H]2C', 'µg/mL', 0.1),
  ('CC[C@H]1OC(=O)[C@H](C)[C@H]2OC3(CCN(C(=O)c4ccc5ccccc5n4)CC3)O[C@](C)(C[C@@H](C)CN(C)[C@H](C)[C@@H](O)[C@]1(C)O)[C@H](O[C@@H]1O[C@H](C)C[C@H](N(C)C)[C@H]1O)[C@H]2C', 'µg/mL', 0.1),
  ('CC[C@H]1OC(=O)[C@H](C)[C@H]2OC3(CCN(CCc4ccc(Cl)c(Cl)c4)CC3)O[C@](C)(C[C@@H](C)CN(C)[C@H](C)[C@@H](O)[C@]1(C)O)[C@H](O[C@@H]1O[C@H](C)C[C@H](N(C)C)[C@H]1O)[C@H]2C', 'µg/mL', 0.05),
  ('CC[C@H]1OC(=O)[C@H](C)[C@H]2OC3(CCN(CCc4ccc(OC)cc4)CC3)O[C@](C)(C[C@@H](C)CN(C)[C@H](C)[C@@H](O)[C@]1(C)O)[C@H](O[C@@H]1O[C@H](C)C[C@H](N(C)C)[C@H]1O)[C@H]2C', 'µg/mL', 0.03),
  ('CC[C@H]1OC(=O)[C@H](C)[C@H]2OC3(CCN(Cc4ccc(-c5ccccc5)cc4)CC3)O[C@](C)(C[C@@H](C)CN(C)[C@H](C)[C@@H](O)[C@]1(C)O)[C@H](O[C@@H]1O[C@H](C)C[C@H](N(C)C)[C@H]1O)[C@H]2C', 'µg/mL', 0.1),
  ('CC[C@H]1OC(=O)[C@H](C)[C@H]2OC3(CCN(Cc4cccnc4)CC3)O[C@](C)(C[C@@H](C)CN[C@H](C)[C@@H](O)[C@]1(C)O)[C@H](O[C@@H]1O[C@H](C)C[C@H](N(C)C)[C@H]1O)[C@H]2C', 'µg/mL', 0.03),
  ('CC[C@H]1OC(=O)[C@H](C)[C@H]2OC3(CCN(C(=O)c4cccc(O)n4)CC3)O[C@](C)(C[C@@H](C)CN[C@H](C)[C@@H](O)[C@]1(C)O)[C@H](O[C@@H]1O[C@H](C)C[C@H](N(C)C)[C@H]1O)[C@H]2C', 'µg/mL', 0.3);

Moving on to the next compound.
Data request, read-out MIC, for CC[C@H]1OC(=O)[C@H](C)[C@H]2OC3(CCN(CCc4ccccc4OC)CC3)O[C@](C)(C[C@@H](C)CN[C@H](C)[C@@H](O)[C@]1(C)O)[C@H](O[C@@H]1O[C@H](C)C[C@H](N(C)C)[C@H]1O)[C@H]2C 0.03

* * *

test system: Staphylococcus aureus; assay: Minimum inhibitory concentration against Staphylococcus aureus; type: functional
Endpoint label: MIC

INSERT INTO measurements (smiles_entry, measured) VALUES
  ('CC[C@H]1OC(=O)[C@H](C)[C@@H](O[C@H]2C[C@@](C)(OC)[C@@H](O)[C@H](C)O2)[C@H](C)[C@@H](O[C@@H]2O[C@H](C)C[C@H](N(C)C)[C@H]2O)[C@](C)(O)C[C@@H](C)CN(C)[C@H](C)[C@@H](O)[C@]1(C)O', '0.2 µg/mL'),
  ('CC[C@H]1OC(=O)[C@H](C)[C@H]2OC3(CCN(Cc4ccncc4)CC3)O[C@](C)(C[C@@H](C)CN[C@H](C)[C@@H](O)[C@]1(C)O)[C@H](O[C@@H]1O[C@H](C)C[C@H](N(C)C)[C@H]1O)[C@H]2C', '1.56 µg/mL'),
  ('CC[C@H]1OC(=O)[C@H](C)[C@H]2OC3(CCN(CCc4ccc(Cl)cc4)CC3)O[C@](C)(C[C@@H](C)CN(C)[C@H](C)[C@@H](O)[C@]1(C)O)[C@H](O[C@@H]1O[C@H](C)C[C@H](N(C)C)[C@H]1O)[C@H]2C', '0.39 µg/mL'),
  ('CC[C@H]1OC(=O)[C@H](C)[C@H]2OC3(CCN(C(=O)c4cc5ccccc5[nH]4)CC3)O[C@](C)(C[C@@H](C)CN[C@H](C)[C@@H](O)[C@]1(C)O)[C@H](O[C@@H]1O[C@H](C)C[C@H](N(C)C)[C@H]1O)[C@H]2C', '0.78 µg/mL'),
  ('CC[C@H]1OC(=O)[C@H](C)[C@H]2OC3(CCN(CCc4ccc(Cl)c(Cl)c4)CC3)O[C@](C)(C[C@@H](C)CN(C)[C@H](C)[C@@H](O)[C@]1(C)O)[C@H](O[C@@H]1O[C@H](C)C[C@H](N(C)C)[C@H]1O)[C@H]2C', '0.2 µg/mL'),
  ('CC[C@H]1OC(=O)[C@H](C)[C@H]2OC3(CCN(C(=O)c4ccccc4)CC3)O[C@](C)(C[C@@H](C)CN[C@H](C)[C@@H](O)[C@]1(C)O)[C@H](O[C@@H]1O[C@H](C)C[C@H](N(C)C)[C@H]1O)[C@H]2C', '0.78 µg/mL'),
  ('CC[C@H]1OC(=O)[C@H](C)[C@H]2OC3(CCN(Cc4cccnc4)CC3)O[C@](C)(C[C@@H](C)CN(C)[C@H](C)[C@@H](O)[C@]1(C)O)[C@H](O[C@@H]1O[C@H](C)C[C@H](N(C)C)[C@H]1O)[C@H]2C', '0.78 µg/mL');

Data request, read-out MIC, for CC[C@H]1OC(=O)[C@H](C)[C@H]2OC3(CCN(C(=O)c4cccc(OC)c4)CC3)O[C@](C)(C[C@@H](C)CN[C@H](C)[C@@H](O)[C@]1(C)O)[C@H](O[C@@H]1O[C@H](C)C[C@H](N(C)C)[C@H]1O)[C@H]2C 0.78 µg/mL

* * *

MIC for assorted compounds
tested on: Pasteurella multocida; experiment: Minimum inhibitory concentration against Pasteurella multocida; type: functional
I only need the number, in µg/mL, no unit after it.

INSERT INTO measurements (compound, assayed_system, endpoint_label, result_units, measured) VALUES
  ('CC[C@H]1OC(=O)[C@H](C)[C@H]2OC3(CCN(C(=O)c4ccnc5ccccc45)CC3)O[C@](C)(C[C@@H](C)CN[C@H](C)[C@@H](O)[C@]1(C)O)[C@H](O[C@@H]1O[C@H](C)C[C@H](N(C)C)[C@H]1O)[C@H]2C', 'Pasteurella multocida', 'MIC', 'µg/mL', 0.1),
  ('CC[C@H]1OC(=O)[C@H](C)[C@H]2OC3(CCN(C(=O)c4cccc(OC)c4)CC3)O[C@](C)(C[C@@H](C)CN[C@H](C)[C@@H](O)[C@]1(C)O)[C@H](O[C@@H]1O[C@H](C)C[C@H](N(C)C)[C@H]1O)[C@H]2C', 'Pasteurella multocida', 'MIC', 'µg/mL', 0.1),
  ('CC[C@H]1OC(=O)[C@H](C)[C@H]2OC3(CCN(CCc4ccc(NC(C)=O)cc4)CC3)O[C@](C)(C[C@@H](C)CN(C)[C@H](C)[C@@H](O)[C@]1(C)O)[C@H](O[C@@H]1O[C@H](C)C[C@H](N(C)C)[C@H]1O)[C@H]2C', 'Pasteurella multocida', 'MIC', 'µg/mL', 0.05),
  ('CC[C@H]1OC(=O)[C@H](C)[C@@H](O[C@H]2C[C@@](C)(OC)[C@@H](O)[C@H](C)O2)[C@H](C)[C@@H](O[C@@H]2O[C@H](C)C[C@H](N(C)C)[C@H]2O)[C@](C)(O)C[C@@H](C)CN(C)[C@H](C)[C@@H](O)[C@]1(C)O [AZITHROMYCIN]', 'Pasteurella multocida', 'MIC', 'µg/mL', 0.1),
  ('CC[C@H]1OC(=O)[C@H](C)[C@H]2OC3(CCN(C(=O)c4ccc(-c5ccccc5)cc4)CC3)O[C@](C)(C[C@@H](C)CN[C@H](C)[C@@H](O)[C@]1(C)O)[C@H](O[C@@H]1O[C@H](C)C[C@H](N(C)C)[C@H]1O)[C@H]2C', 'Pasteurella multocida', 'MIC', 'µg/mL', 0.2),
  ('CC[C@H]1OC(=O)[C@H](C)[C@H]2OC3(CCN(Cc4ccccn4)CC3)O[C@](C)(C[C@@H](C)CN(C)[C@H](C)[C@@H](O)[C@]1(C)O)[C@H](O[C@@H]1O[C@H](C)C[C@H](N(C)C)[C@H]1O)[C@H]2C', 'Pasteurella multocida', 'MIC', 'µg/mL', 0.03);

State its MIC on Pasteurella multocida: CC[C@H]1OC(=O)[C@H](C)[C@H]2OC3(CCN(C(=O)c4cnc5ccccc5c4)CC3)O[C@](C)(C[C@@H](C)CN(C)[C@H](C)[C@@H](O)[C@]1(C)O)[C@H](O[C@@H]1O[C@H](C)C[C@H](N(C)C)[C@H]1O)[C@H]2C 0.1

State its MIC on Pasteurella multocida: CC[C@H]1OC(=O)[C@H](C)[C@H]2OC3(CCN(CCc4ccc5ccccc5n4)CC3)O[C@](C)(C[C@@H](C)CN(C)[C@H](C)[C@@H](O)[C@]1(C)O)[C@H](O[C@@H]1O[C@H](C)C[C@H](N(C)C)[C@H]1O)[C@H]2C 0.03

Origin of the recorded values: ChEMBL document CHEMBL1134903
